Listed here are compounds together with their documented viability, T/C.
- Test system: 616215-338-R-J1-PDC spheroid with HUVEC/MSC, viability
- EXPERIMENTAL DETAILS: Anticancer human tumor 616215-338-R-J1-PDC patient-derived colon adenocarcinoma cell line growth inhibition [TAK]
- EXPERIMENTAL SETUP: second compound 9.49 µM; first compound 0.000316 µM; stronger effect = lower value
READOUT NAME: viability, T/C

[[record]]
compound = "CC(C)CC(NC(=O)C(Cc1ccccc1)NC(=O)c1cnccn1)B(O)O (centres undefined) + CC(C)NCC(C(=O)N1CCN(c2ncnc3c2C(C)CC3O)CC1)c1ccc(Cl)cc1"
readout_name = "viability, T/C"
measured_value = "26.4%"

[[record]]
compound = "CC(C)CC(NC(=O)CNC(=O)c1cc(Cl)ccc1Cl)B1OC(=O)CC(CC(=O)O)(C(=O)O)O1 (centres undefined) + CC(C)NCC(C(=O)N1CCN(c2ncnc3c2C(C)CC3O)CC1)c1ccc(Cl)cc1"
readout_name = "viability, T/C"
measured_value = "23.4%"

[[record]]
compound = "COC1CC2CCC(C)C(O)(O2)C(=O)C(=O)N2CCCCC2C(=O)OC(C(C)CC2CCC(OCCO)C(OC)C2)CC(=O)C(C)C=C(C)C(O)C(OC)C(=O)C(C)CC(C)C=CC=CC=C1C (centres undefined) + CC(C)NCC(C(=O)N1CCN(c2ncnc3c2C(C)CC3O)CC1)c1ccc(Cl)cc1"
readout_name = "viability, T/C"
measured_value = "23.1%"

[[record]]
compound = "CC(C)n1nc(-c2ccc3oc(N)nc3c2)c2c(N)ncnc21 + CC(C)NCC(C(=O)N1CCN(c2ncnc3c2C(C)CC3O)CC1)c1ccc(Cl)cc1"
readout_name = "viability, T/C"
measured_value = "28.6%"


---

- System: 616215-338-R-J1-PDC spheroid with HUVEC/MSC, viability
- EXPERIMENTAL DETAILS: Anticancer human tumor 616215-338-R-J1-PDC cell line growth inhibition [TAK];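 note: spheroids exposed to drugs for 7 days before readout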
- EXPERIMENTAL SETUP: curve of first compound; second compound 30 µM
READOUT NAME: IC50

[[record]]
compound = "CC(=O)Nc1cccc(-n2c(=O)n(C3CC3)c(=O)c3c(Nc4ccc(I)cc4F)n(C)c(=O)c(C)c32)c1 + CC(C)NCC(C(=O)N1CCN(c2ncnc3c2C(C)CC3O)CC1)c1ccc(Cl)cc1"
measured_value = "< 0.0949 nM"

[[record]]
compound = "CC(C)CC(NC(=O)C(Cc1ccccc1)NC(=O)c1cnccn1)B(O)O (stereo not drawn) + CC(C)NCC(C(=O)N1CCN(c2ncnc3c2C(C)CC3O)CC1)c1ccc(Cl)cc1"
measured_value = "< 0.0316 nM"

[[record]]
compound = "Cc1nc(NC(=O)N2CCCC2C(N)=O)sc1-c1ccnc(C(C)(C)C(F)(F)F)c1 (stereo not drawn) + CC(C)NCC(C(=O)N1CCN(c2ncnc3c2C(C)CC3O)CC1)c1ccc(Cl)cc1"
measured_value = "< 31.6 nM"

[[record]]
compound = "CC(C)n1nc(-c2ccc3oc(N)nc3c2)c2c(N)ncnc21 + CC(C)NCC(C(=O)N1CCN(c2ncnc3c2C(C)CC3O)CC1)c1ccc(Cl)cc1"
measured_value = "< 0.316 nM"

[[record]]
compound = "Cn1cnc2c(F)c(Nc3ccc(Br)cc3Cl)c(C(=O)NOCCO)cc21 + CC(C)NCC(C(=O)N1CCN(c2ncnc3c2C(C)CC3O)CC1)c1ccc(Cl)cc1"
measured_value = "< 9.49 nM"

[[record]]
compound = "CCCS(=O)(=O)Nc1ccc(F)c(C(=O)c2c[nH]c3ncc(-c4ccc(Cl)cc4)cc23)c1F + CC(C)NCC(C(=O)N1CCN(c2ncnc3c2C(C)CC3O)CC1)c1ccc(Cl)cc1"
measured_value = "< 316 nM"

[[record]]
compound = "CC(C)CC(NC(=O)CNC(=O)c1cc(Cl)ccc1Cl)B1OC(=O)CC(CC(=O)O)(C(=O)O)O1 (stereo not drawn) + CC(C)NCC(C(=O)N1CCN(c2ncnc3c2C(C)CC3O)CC1)c1ccc(Cl)cc1"
measured_value = "< 0.316 nM"

[[record]]
compound = "COc1c(OCCCN2CCOCC2)ccc2c3n(c(=NC(=O)c4cnc(N)nc4)nc12)CCN3 + CC(C)NCC(C(=O)N1CCN(c2ncnc3c2C(C)CC3O)CC1)c1ccc(Cl)cc1"
measured_value = "< 3.16 nM"

